Entry source: the supplement of paper PMC6555819

Consider the following sequences; for each one, report its PBM binding z-score.
System: LXRb:RXRa (NR concentration 270 nM, RXRa partner concentration 90 nM)
assayName: PBM binding z-score (relative to random genomic background probes); higher = stronger binding; sequences stand for … in GC…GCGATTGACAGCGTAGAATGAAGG
Numbers only.

Examples with their reported PBM binding z-score follow.
primarysequence=CGAACTAGGTCAGAACAGGACAGCGAAGGATGAT valueobserved=0.393
primarysequence=ACTCGGAGGACAAAGCTCAGAGCTACGCCAGTGA valueobserved=-1.06
primarysequence=CAAAGTAGGTCAAAGGTCAAAGTCGAGCCAACCA valueobserved=7.26
primarysequence=ACTATCAGGCCAAGTTTGGGTCACTCAAACAAAG valueobserved=0.871
primarysequence=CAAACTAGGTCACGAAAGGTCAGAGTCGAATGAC valueobserved=6.37
primarysequence=CCGCGTAGGTTATGGGGCATTCAGGCAACGGTGA valueobserved=0.756
primarysequence=CAAACTTGGTCACGAAAGGTCAAAGTCGAATGAC valueobserved=5.74
primarysequence=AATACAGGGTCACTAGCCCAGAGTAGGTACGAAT valueobserved=3.8

Below are 4 sequences. Give each one its PBM binding z-score.
1. ATATGTAGGTAAAGGGTCATTCAGGTTGGTTCGC
2. GGAACGAGGGCATTCGAGTTGATAGCTTGGCGAT
3. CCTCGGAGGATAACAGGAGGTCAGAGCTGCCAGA
4. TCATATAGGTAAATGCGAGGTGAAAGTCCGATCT

(A)
1. 3.97
2. 0.207
3. 1.24
4. 0.944

###

Consider the following sequences; for each one, report its PBM binding z-score.
Tested on: PPARg:RXRa IVT, anti-PPARg (NR concentration 270 nM, RXRa partner concentration 90 nM)
assayName: PBM binding z-score (relative to random genomic background probes); higher = stronger binding; sequences stand for … in GC…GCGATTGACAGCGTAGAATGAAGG
Give bare numbers.

primarysequence=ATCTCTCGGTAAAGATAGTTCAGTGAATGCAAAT valueobserved=0.216
primarysequence=GCTTACGGGACAAAGGTTATAGCATGAATAGAAT valueobserved=3.13
primarysequence=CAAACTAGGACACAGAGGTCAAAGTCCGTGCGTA valueobserved=6.69
primarysequence=ATATGTAGGTTACATCCGGGTCATGCAGGCTATG valueobserved=7.25
primarysequence=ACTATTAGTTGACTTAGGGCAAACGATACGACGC valueobserved=0.568

Below are 3 sequences. Give each one its PBM binding z-score.
1. ACAGACAGGTGATGAAGGTAACGCAGGCTATCAT
2. TCTAGTTGGTCAAAGGACACACACTCGAAATGCG
3. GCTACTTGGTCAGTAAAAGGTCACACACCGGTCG

(A)
1. 0.365
2. 2.63
3. 3.24

Below are 2 sequences. Give each one its PBM binding z-score.
1. AATACAGGGTCACTAGACCAGAGTAGGTACGAAT
2. CCTAGCAGTCCAGGGTCACTCAAGCATTTCGCTT

(A)
[4.48, 0.647]

Below are 7 sequences. Give each one its PBM binding z-score.
1. AGTCAAAGTTCACTAGGTAACGAAAGATTCAGCT
2. AGATGTAGGTTAGCTGGGGTCATTCAGACTAGGC
3. GCTATTAGTTGAAAGGGCAACGGAATGATTCTCG
4. CTACCAAGGTGAACAAGGTCGTTGCTTACTATTC
5. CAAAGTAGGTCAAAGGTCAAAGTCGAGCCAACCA
6. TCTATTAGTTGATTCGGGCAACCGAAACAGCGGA
7. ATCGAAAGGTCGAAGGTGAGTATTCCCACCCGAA

(A)
1: 5.36; 2: 5.76; 3: 0.992; 4: 2.58; 5: 9.31; 6: 0.598; 7: 2.13

###

Test system: PPARg DBDmut IVT, anti-PPARg (DBD mutation: PPARg1 K132A/R137A, NR concentration 270 nM)
assayName: PBM binding z-score (relative to random genomic background probes); higher = stronger binding; sequences stand for … in GC…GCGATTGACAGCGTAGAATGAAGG
propertyMeasured: PBM binding z-score

Examples with their reported PBM binding z-score follow.
primarysequence=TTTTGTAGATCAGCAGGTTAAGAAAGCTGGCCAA valueobserved=0.632
primarysequence=TGTGCTAGGTCAGTTGGTCAGCTAACGAGCTGCC valueobserved=0.199
primarysequence=CAGCCTAGGTCAGGGCAAGTATAGGAGGAACGTT valueobserved=-1.17
primarysequence=CCTACTGGGCCATCAGGTTATTGATATCAACGTT valueobserved=0.0128
primarysequence=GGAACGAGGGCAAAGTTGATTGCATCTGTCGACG valueobserved=-0.581

For `ACCTCTAGGTAAAAGTTCAGTGAATCCCGAGGAT` on PPARg DBDmut IVT, anti-PPARg (DBD mutation: PPARg1 K132A/R137A, NR concentration 270 nM), measured PBM binding z-score was 0.231

###

Test system: FXR:RXRa (NR concentration 270 nM, RXRa partner concentration 90 nM)
assayName: PBM binding z-score (relative to random genomic background probes); higher = stronger binding; sequences stand for … in GC…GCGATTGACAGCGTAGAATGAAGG
Consider the following sequences; for each one, report its PBM binding z-score.
One number for each entry.

primarysequence=TCATATAGGTAAATGCTAGGCGAAAGTCCGATCT propertymeasured="PBM binding z-score" valueobserved=0.564
primarysequence=TCTAGCGGGCCAGAGGGTCACTCAAGAGGTACGG propertymeasured="PBM binding z-score" valueobserved=0.839
primarysequence=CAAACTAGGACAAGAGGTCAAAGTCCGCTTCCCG propertymeasured="PBM binding z-score" valueobserved=4.96

From here, focus on the item given below.
Recorded result, `TCATATAGGTAAAAGTGAAAGTCGAACGATATGA` , PBM binding z-score: 0.173

###

Consider the following sequences; for each one, report its PBM binding z-score.
Tested on: RARa homodimer (NR concentration 270 nM)
assayName: PBM binding z-score (relative to random genomic background probes); higher = stronger binding; sequences stand for … in GC…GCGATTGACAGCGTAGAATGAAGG

Examples with their reported PBM binding z-score follow.
primarysequence=CCTACTGGGCCAAAGGTCATTGCTTCCAATGCTC experimentaltarget="RARa homodimer (NR concentration 270 nM)" propertymeasured="PBM binding z-score" valueobserved=0.417
primarysequence=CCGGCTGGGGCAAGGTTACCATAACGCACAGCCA experimentaltarget="RARa homodimer (NR concentration 270 nM)" propertymeasured="PBM binding z-score" valueobserved=-0.728
primarysequence=TAGCCTAGGTCAGATCGGGCCAGTAAACGCTATA experimentaltarget="RARa homodimer (NR concentration 270 nM)" propertymeasured="PBM binding z-score" valueobserved=-1.71
primarysequence=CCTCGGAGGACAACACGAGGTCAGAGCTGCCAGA experimentaltarget="RARa homodimer (NR concentration 270 nM)" propertymeasured="PBM binding z-score" valueobserved=0.807
primarysequence=CCGACTGGGGCAGAAAGGTTCCCATACCATCCGG experimentaltarget="RARa homodimer (NR concentration 270 nM)" propertymeasured="PBM binding z-score" valueobserved=-0.395
primarysequence=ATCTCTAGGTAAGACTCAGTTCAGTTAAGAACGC experimentaltarget="RARa homodimer (NR concentration 270 nM)" propertymeasured="PBM binding z-score" valueobserved=1.6
primarysequence=ATACCAAGGTGATCGTGAGGTCGATGATACTAAC experimentaltarget="RARa homodimer (NR concentration 270 nM)" propertymeasured="PBM binding z-score" valueobserved=0.262
primarysequence=AATACAGGGTCACCGTAGGCCAGAGTACGCACAG experimentaltarget="RARa homodimer (NR concentration 270 nM)" propertymeasured="PBM binding z-score" valueobserved=0.752

Below are 6 sequences. Give each one its PBM binding z-score.
1. ATCTCTAGGTAACACTCAGTTCAGTGAAGAACGC
2. ATACCAAGGTGATCGTGAGGTTGTTGATACTAAC
3. TAGCCTAGGTCATTCAGGGGCCAGTGTAGAAAGC
4. TCGAGTAGGTTACCAATGGGGCATTCGGCTTTCT
5. TCATATAGGTAAACAGGTGAAAGTACGTAAGTTA
6. ATATGTAGGTTAAGGTTCATTCAGGTTGGTTCGC

(A)
1: 1.39; 2: 0.0495; 3: -0.591; 4: -1.05; 5: 1.42; 6: 1.87

###

System: PPARa:RXRa (NR concentration 270 nM, RXRa partner concentration 90 nM)
assayName: PBM binding z-score (relative to random genomic background probes); higher = stronger binding; sequences stand for … in GC…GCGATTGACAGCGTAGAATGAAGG
propertyMeasured: PBM binding z-score

Examples with their reported PBM binding z-score follow.
primarysequence=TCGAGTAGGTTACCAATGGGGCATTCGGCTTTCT valueobserved=0.808
primarysequence=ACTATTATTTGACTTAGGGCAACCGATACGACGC valueobserved=0.557
primarysequence=TTACCAAGGTGAAGGCCGTTGATCCCTCTGTAGA valueobserved=1.33
primarysequence=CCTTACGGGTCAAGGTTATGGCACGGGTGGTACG valueobserved=4.86

Below are 2 sequences. Give each one its PBM binding z-score.
1. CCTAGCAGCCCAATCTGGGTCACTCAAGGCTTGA
2. TTACCAAGGTAAGCTGAGGTCGTTGATCCAACTC

(A)
1. 2.93
2. 1.3

Below are 7 sequences. Give each one its PBM binding z-score.
1. ATCGAAAGGTCGTGAGGTGATTATACAGAAAGGC
2. AGAACGACGGCAATGAGTTGATAGCACGGGTGGC
3. GATACAGGGTCAGCTAGAGGCCAGAGGATGGAAA
4. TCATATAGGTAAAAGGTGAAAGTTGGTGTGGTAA
5. GCTGCTAGGTCAGGTTGGACAGCTAACGGGTACG
6. CCAGACAGGTGAGAAAGTAACTCAGCCTCGATTA
7. CTAGACAGGTGAAAGGTAACTCAGTCTGGTACGC

(A)
[4.92, -0.728, 4.54, 5.33, 1.2, 0.206, 3.4]

Below are 3 sequences. Give each one its PBM binding z-score.
1. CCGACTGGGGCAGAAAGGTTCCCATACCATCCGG
2. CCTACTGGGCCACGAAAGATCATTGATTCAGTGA
3. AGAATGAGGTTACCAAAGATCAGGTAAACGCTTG

(A)
1: -0.271; 2: 0.946; 3: 3.43
